Subject of test: Lethal factor (Bacillus anthracis) (UniProt P15917)
Sequence (P15917 whole entry, looked up): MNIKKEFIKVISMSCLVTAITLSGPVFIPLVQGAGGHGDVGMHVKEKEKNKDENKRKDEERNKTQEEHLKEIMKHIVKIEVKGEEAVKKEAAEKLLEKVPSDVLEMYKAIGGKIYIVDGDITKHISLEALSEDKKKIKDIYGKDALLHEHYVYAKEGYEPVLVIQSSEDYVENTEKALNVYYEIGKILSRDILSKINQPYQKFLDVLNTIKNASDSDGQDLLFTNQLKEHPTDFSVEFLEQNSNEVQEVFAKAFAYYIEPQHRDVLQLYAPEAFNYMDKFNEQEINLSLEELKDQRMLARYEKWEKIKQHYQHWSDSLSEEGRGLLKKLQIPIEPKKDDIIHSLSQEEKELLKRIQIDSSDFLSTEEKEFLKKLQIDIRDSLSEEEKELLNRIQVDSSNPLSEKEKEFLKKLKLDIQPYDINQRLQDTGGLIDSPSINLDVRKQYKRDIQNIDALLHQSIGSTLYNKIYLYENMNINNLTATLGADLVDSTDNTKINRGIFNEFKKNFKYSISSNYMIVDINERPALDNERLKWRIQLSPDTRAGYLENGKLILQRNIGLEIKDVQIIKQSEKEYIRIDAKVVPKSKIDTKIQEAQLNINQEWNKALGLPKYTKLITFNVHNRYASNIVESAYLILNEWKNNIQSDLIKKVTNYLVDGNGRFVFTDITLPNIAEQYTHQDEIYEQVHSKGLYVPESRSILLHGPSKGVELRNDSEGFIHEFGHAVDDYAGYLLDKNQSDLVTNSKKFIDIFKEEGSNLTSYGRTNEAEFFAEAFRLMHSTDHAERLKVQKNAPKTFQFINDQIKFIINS
Test name: Lethal factor protease inhibitors, Bacillus anthracis, multiplex microsphere cleavage assay, validation set (AID 588461)
Condition info: flow cytometry, at 10 µM, hits give high values
Endpoint: inhibition (%)
Hi! Could you send only the number? It should be in %, unit omitted.

These solved cases illustrate the format of a correct answer.
1) CCOC(=O)C1C(=O)OC(C)(C)C1C(C)C(=O)c1ccc(C)cc1 (centres undefined)	4.6
2) COc1ccc(-c2c(NC(=O)c3ccco3)n(C)c3ccccc3c2=O)cc1	-0.7

Item CC(=O)O[C@H]1C(=O)[C@@]2(C)[C@H]([C@H](OC(=O)c3ccccc3)[C@]3(O)C[C@H](OC(=O)[C@H](O)C(NC(=O)c4ccccc4)c4ccccc4)C(C)=C1C3(C)C)[C@]1(OC(C)=O)CO[C@@H]1C[C@@H]2O (some centres undefined) has what recorded inhibition?
4.6

Item COc1cc2c(cc1O)CCN(C(=O)c1ccco1)C2C (centres undefined) has what recorded inhibition?
2.3

Origin of measurements: PubChem BioAssay
